- assay-protocol: Population pharmacokinetics of TSC in plasma (LC-MS/MS, two-compartment model)
- Assay type: in vivo, human
- run-parameters: human, plasma; population estimate; single IV bolus 0.5-2.5 mg/kg; multiplied by SCALE (WT/75) and FCTR 1-0.53677 · (DOSE/1.5)
parameter-measured: clearance (mL/min)
Please respond with the number in mL/min and leave the unit unwritten.

In plain terms, CC(/C=C/C=C(\C)C(=O)[O-])=C\C=C\C=C(C)\C=C\C=C(/C)C(=O)O.[Na+] [TSC, trans sodium crocetinate] has a documented clearance of 137
